pIC50: −log10 of the molar value.
pIC50, PI3Kalpha (Homo sapiens (Human)): measured values
EXPERIMENTAL_READOUT: pIC50

> print(dat)
                                smiles.repr  experimental.result
1  CCc1ncnc(-c2cc(F)c(C(=O)N3CCN(C)C[C@H]3C)c(F)c2)c1C#Cc1ccc(N)nc1                 6.44
2   CCc1ncnc(-c2ccnc(OC)c2)c1C#Cc1ccc(N)nc1                 7.21
3  Cc1ncnc(-c2ccc(F)c(C(=O)N3CCOCC3)c2)c1C#Cc1ccc(N)nc1                 6.42

* * *

- TEST_TARGET: PI3Kalpha (Homo sapiens (Human))
Classes (IC50): low group (below 200 nM), middle group (200 nM to below 500 nM), high group (500 nM or more)

> print(dat)
                                    molecule  discrete.label
 1  Cc1ncnc(-c2ccc(Cl)c(C(=O)N3CCOCC3)c2)c1C#Cc1ccc(N)nc1    middle group
 2  CCc1ncnc(-c2ccc(C(=O)N3CCN(CC4CCCO4)CC3)c(F)c2)c1C#Cc1ccc(N)nc1 (stereo not drawn)       low group
 3  CCc1ncnc(-c2ccc(C(=O)N3CCOC4(CCNCC4)C3)c(F)c2)c1C#Cc1ccc(N)nc1    middle group
 4  CCc1ncnc(-c2ccc(C(=O)N3CCN(CCN)CC3)c(Cl)c2)c1C#Cc1ccc(N)nc1       low group
 5  CCc1ncnc(-c2ccc(C(=O)N3CCC(N4CCOCC4)C3)c(F)c2)c1C#Cc1ccc(N)nc1 (stereo not drawn)       low group
 6  CCc1ncnc(-c2ccc(C(=O)N3CCC(O)(CN(C)C)CC3)c(F)c2)c1C#Cc1ccc(N)nc1    middle group
 7  CCc1ncnc(-c2ccc(C(=O)N3CCC(O)(C(F)(F)F)CC3)c(F)c2)c1C#Cc1ccc(N)nc1    middle group
 8  CCc1ncnc(-c2ccc(C(=O)N3CCN(Cc4ccccc4)CC3)c(OC)c2)c1C#Cc1ccc(N)nc1    middle group
 9  CCc1ncnc(-c2ccc(C(=O)N3CCN(C4CCC4)CC3)c(Cl)c2)c1C#Cc1ccc(N)nc1       low group
10  CCc1ncnc(-c2ccc(C(=O)N3CCC(CN(C)C)CC3)c(F)c2)c1C#Cc1ccc(N)nc1C      high group
11  CCc1ncnc(-c2ccc(C(=O)N(C)C3CCN(C)CC3)c(F)c2)c1C#Cc1ccc(N)nc1      high group

* * *

- TEST_TARGET: PI3Kalpha (Homo sapiens (Human))
pIC50: −log10 of the molar value.
EXPERIMENTAL_READOUT: pIC50

> print(dat)
                                    molecule                       test.target  experimental.result
 1  CCc1ncnc(-c2ccc(C(=O)N3CCC(N(C)C)CC3)c(F)c2)c1C#Cc1ccc(N)nc1 [Example D-100]  PI3Kalpha (Homo sapiens (Human))                 6.46
 2  CCc1ncnc(-c2ccc(C(=O)N3CCN(CC4CC4)CC3)c(F)c2)c1C#Cc1ccc(N)nc1 [Example D-106]  PI3Kalpha (Homo sapiens (Human))                 6.60
 3  CCc1ncnc(-c2ccc(C(=O)N3CCCO3)c(Cl)c2)c1C#Cc1ccc(N)nc1 [Example E-74]  PI3Kalpha (Homo sapiens (Human))                 7.27
 4  CCc1ncnc(-c2cc(F)c(C(=O)N3CCC4(CC3)CN(C)C4)c(F)c2)c1C#Cc1ccc(N)nc1 [Example E-336]  PI3Kalpha (Homo sapiens (Human))                 6.11
 5  CCc1ncnc(-c2ccc(C(=O)N3CCC(N4CCCCCC4)CC3)c(OC)c2)c1C#Cc1ccc(N)nc1 [Example E-58]  PI3Kalpha (Homo sapiens (Human))                 6.60
 6  CCc1ncnc(-c2ccc(C(=O)NC3CCN(C4CCN(C)CC4)C3)c(F)c2)c1C#Cc1ccc(N)nc1 [Example D-210]  PI3Kalpha (Homo sapiens (Human))                 6.43
 7  CCCCN1CCN(C(=O)c2ccc(-c3ncnc(CC)c3C#Cc3ccc(N)nc3)cc2C)CC1 [Example E-86]  PI3Kalpha (Homo sapiens (Human))                 6.83
 8  CCc1ncnc(-c2ccc(C(=O)N3CCN(c4ccccc4)CC3)c(F)c2)c1C#Cc1ccc(N)nc1 [Example D-98]  PI3Kalpha (Homo sapiens (Human))                 6.70
 9  CCc1ncnc(-c2ccc(C(=O)N3CCCN(C)CC3)c(C)c2)c1C#Cc1ccc(N)nc1 [Example E-129]  PI3Kalpha (Homo sapiens (Human))                 6.63
10  CCc1ncnc(-c2ccc(C(=O)N3CCC4(CC3)CNC4)c(F)c2)c1C#Cc1ccc(N)nc1 [Example E-268]  PI3Kalpha (Homo sapiens (Human))                 6.62
11  CCc1ncnc(-c2ccc(C(=O)N3CCCO3)cc2)c1C#Cc1ccc(N)nc1 [Example D-222]  PI3Kalpha (Homo sapiens (Human))                 7.38
12  Cc1ncnc(-c2ccc(C(=O)N3CC(O)CO3)c(Cl)c2)c1C#Cc1ccc(N)nc1 [Example D-232]  PI3Kalpha (Homo sapiens (Human))                 7.42
13  CCc1ncnc(-c2ccc(C(=O)N3CCN(c4ccccn4)CC3)c(F)c2)c1C#Cc1ccc(N)nc1 [Example D-92]  PI3Kalpha (Homo sapiens (Human))                 6.91
14  CCc1ncnc(-c2ccc(C(=O)N3CCN(CC(F)F)CC3)c(Cl)c2)c1C#Cc1ccc(NC)nc1 [Example E-187]  PI3Kalpha (Homo sapiens (Human))                 6.79
15  CCc1ncnc(-c2ccc(C(=O)N3CCN(C4CCCC4)CC3)c(OC)c2)c1C#Cc1ccc(N)nc1 [Example E-68]  PI3Kalpha (Homo sapiens (Human))                 6.39
16  CCc1ncnc(-c2ccc(C(=O)NCCOC)c(Cl)c2)c1C#Cc1ccc(N)nc1 [Example D-33]  PI3Kalpha (Homo sapiens (Human))                 6.74
17  CCc1ncnc(-c2ccc(OC)nc2)c1C#Cc1ccc(N)nc1 [Example C-30]  PI3Kalpha (Homo sapiens (Human))                 7.40
18  CCc1ncnc(-c2ccc(C(=O)N3CCN(Cc4ccccc4)CC3)c(Cl)c2)c1C#Cc1ccc(N)nc1 [Example D-160]  PI3Kalpha (Homo sapiens (Human))                 6.18
19  CCc1ncnc(-c2ccc(C(=O)N3CCC4(CC3)CNC4)c(Cl)c2)c1C#Cc1ccc(N)nc1 [Example E-251]  PI3Kalpha (Homo sapiens (Human))                 7.04
20  CCc1ncnc(-c2ccc(C(=O)N3CCC(C(C)(C)O)CC3)c(OC)c2)c1C#Cc1ccc(N)nc1 [Example E-44]  PI3Kalpha (Homo sapiens (Human))                 6.63
21  CCc1ncnc(-c2ccc(C(=O)NCC3CCNCC3)c(F)c2)c1C#Cc1ccc(N)nc1 [Example E-168]  PI3Kalpha (Homo sapiens (Human))                 6.43

* * *

Here the recorded pIC50 is given for each entry.
- TEST_TARGET: PI3Kalpha (Homo sapiens (Human), UniProt P42336)
- Sequence (P42336 whole entry, looked up): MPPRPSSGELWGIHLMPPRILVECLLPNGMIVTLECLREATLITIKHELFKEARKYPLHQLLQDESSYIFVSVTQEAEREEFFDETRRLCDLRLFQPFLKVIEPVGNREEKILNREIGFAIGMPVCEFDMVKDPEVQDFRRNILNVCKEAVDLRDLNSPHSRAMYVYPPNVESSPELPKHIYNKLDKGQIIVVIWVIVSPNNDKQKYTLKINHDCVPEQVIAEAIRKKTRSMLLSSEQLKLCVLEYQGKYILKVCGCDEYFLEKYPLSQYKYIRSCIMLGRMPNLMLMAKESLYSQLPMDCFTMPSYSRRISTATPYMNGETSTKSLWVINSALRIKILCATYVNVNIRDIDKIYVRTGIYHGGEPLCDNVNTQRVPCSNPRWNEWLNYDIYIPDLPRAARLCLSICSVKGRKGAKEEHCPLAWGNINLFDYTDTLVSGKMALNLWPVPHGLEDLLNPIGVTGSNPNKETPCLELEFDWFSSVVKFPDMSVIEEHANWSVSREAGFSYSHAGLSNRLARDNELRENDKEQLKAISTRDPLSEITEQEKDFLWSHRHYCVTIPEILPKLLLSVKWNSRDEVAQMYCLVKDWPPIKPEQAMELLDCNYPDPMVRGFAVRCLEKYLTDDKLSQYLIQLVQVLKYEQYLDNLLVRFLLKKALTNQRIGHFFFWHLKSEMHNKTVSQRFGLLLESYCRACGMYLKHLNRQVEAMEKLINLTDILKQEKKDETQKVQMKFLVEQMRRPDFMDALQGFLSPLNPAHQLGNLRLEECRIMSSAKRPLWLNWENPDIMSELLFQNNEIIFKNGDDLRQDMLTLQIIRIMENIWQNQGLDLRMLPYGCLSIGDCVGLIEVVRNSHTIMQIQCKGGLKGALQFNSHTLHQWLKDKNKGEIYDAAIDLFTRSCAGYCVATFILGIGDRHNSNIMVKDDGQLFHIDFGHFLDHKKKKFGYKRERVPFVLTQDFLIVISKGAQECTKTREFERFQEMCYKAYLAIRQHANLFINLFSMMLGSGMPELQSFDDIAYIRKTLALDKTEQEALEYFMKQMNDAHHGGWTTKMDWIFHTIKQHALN
pIC50: −log10 of the molar value.
EXPERIMENTAL_READOUT: pIC50

> print(dat)
                                   molecule  experimental.result
1  CCc1ncnc(-c2ccc(C(=O)N3CC[S+]([O-])CC3)c(C)c2)c1C#Cc1ccc(N)nc1 [Example E-121]                 7.19
2  CCc1ncnc(-c2ccc(C(=O)N3CCC(N4CCN(C)CC4)CC3)c(Cl)c2)c1C#Cc1ccc(N)nc1 [Example E-70]                 6.86
3  CCc1ncnc(-c2cc(Cl)c(C(=O)N3CCN(CC)CC3)c(Cl)c2)c1C#Cc1ccc(N)nc1 [Example E-198]                 7.04
4  CCc1ncnc(-c2ccc(C(=O)N3CCN(C(C)=O)CC3)c(OC)c2)c1C#Cc1ccc(N)nc1 [Example D-56]                 7.14

* * *

- TEST_TARGET: PI3Kalpha (Homo sapiens (Human))
Here the recorded log10(IC50) is given for each entry.
EXPERIMENTAL_READOUT: log10(IC50) (log10 of the value in nM)

> print(dat)
                                    compound  experimental.result
 1  CCc1ncnc(-c2ccc(C(=O)N3CCC(C)(O)CC3)c(Cl)c2)c1C#Cc1ccc(N)nc1 [Example D-143]                 1.89
 2  CCc1ncnc(-c2ccc(C(=O)N3CCC(C4CCN(C)CC4)CC3)c(Cl)c2)c1C#Cc1ccc(N)nc1 [Example D-139]                 2.57
 3  CCc1ncnc(-c2ccc(C(=O)N3CCC4(CCN(C)C4)C3)c(OC)c2)c1C#Cc1ccc(N)nc1 (stereo not shown)                 2.82
 4  CCc1ncnc(-c2cc(F)c(C(=O)N3CCN(C)CC3)c(F)c2)c1C#Cc1ccc(N)nc1                 2.12
 5  CCc1ncnc(-c2ccc(C(=O)N3CC(O)CO3)c(C)c2)c1C#Cc1ccc(N)nc1 (stereo not shown)                 2.03
 6  CNC(=O)c1cc(-c2ncnc(C)c2C#Cc2ccc(N)nc2)ccc1F                 2.26
 7  CNC(=O)c1ccc(-c2ncnc(C)c2C#Cc2ccc(N)nc2)cc1Cl                 1.70
 8  CCc1ncnc(-c2ccc(C(=O)N3CCn4c(COC)nnc4C3)c(F)c2)c1C#Cc1ccc(N)nc1                 1.71
 9  CCc1ncnc(-c2cc(F)c(C(=O)N3CCN(CCNS(C)(=O)=O)CC3)c(Cl)c2)c1C#Cc1ccc(N)nc1                 1.41
10  CCc1ncnc(-c2ccc(C(=O)N3CCC4(CC3)CN(C(=O)OC(C)(C)C)CCO4)c(F)c2)c1C#Cc1ccc(N)nc1                 2.61
11  CCc1ncnc(-c2cc(F)c(C(=O)N3CCn4c(C)cnc4C3)c(F)c2)c1C#Cc1ccc(N)nc1                 1.93
12  CCc1ncnc(-c2ccc(C(=O)N3CC[C@H](O)C3)c(Cl)c2)c1C#Cc1ccc(N)nc1 [Example E-27]                 1.77
13  CCc1ncnc(-c2ccc(C(=O)N3CCCCC3)c(F)c2)c1C#Cc1ccc(N)nc1C                 2.31
14  CCc1ncnc(-c2ccc(S(C)(=O)=O)cc2)c1C#Cc1ccc(N)nc1                 1.82
15  CCc1ncnc(-c2cc(F)c(C(=O)N3CCN(C4CCCC4O)CC3)c(Cl)c2)c1C#Cc1ccc(N)nc1 (stereo not shown)                 1.80
16  CCc1ncnc(-c2ccc(C(=O)N3CCCO3)c(C)c2)c1C#Cc1ccc(N)nc1                 2.16
17  CCc1ncnc(-c2cc(F)c(C(=O)N3CCN(C(C)COC)CC3)c(Cl)c2)c1C#Cc1ccc(N)nc1 (stereo not shown)                 2.04
18  CCc1ncnc(-c2ccc(C(=O)N3CCC(O)CC3)c(Cl)c2)c1C#Cc1ccc(N)nc1                 1.72
19  CCc1ncnc(-c2ccc(C(=O)N3CCN(S(=O)(=O)CC)CC3)c(F)c2)c1C#Cc1ccc(N)nc1                 1.72
20  CCc1ncnc(-c2ccc(C(=O)N3CCN(c4ccncc4)CC3)c(F)c2)c1C#Cc1ccc(N)nc1                 2.42
21  CCc1ncnc(-c2ccc(C(=O)N3CCNC(=O)C3)c(OC)c2)c1C#Cc1ccc(N)nc1                 1.28
22  CCc1ncnc(-c2ccc(C(=O)N3CCC(C(C)(C)O)CC3)c(F)c2)c1C#Cc1ccc(NC)nc1                 2.53
